# Test system: HT-29
# protocol-notes: MTT cell viability assay
# Format: cell-based
# experimental-setup: Homo sapiens, HT-29 48 h
Where a name gives a salt, the structure may show the parent alone.
Measured IC50 of individual entries
observation-type: IC50 (µM)

1) COc1ccc(C=C2SC(Nc3cc(OC)c(OC)c(OC)c3)=NC2=O)cc1: 4.58
2) COc1cc(NC2=NC(=O)C(=Cc3ccc4cc[nH]c4c3)S2)cc(OC)c1OC: 6.58
3) COc1cccc2c1C(=O)c1c(O)c3c(c(O)c1C2=O)C[C@@](O)(C(=O)CO)C[C@@H]3O[C@H]1C[C@H](N)[C@H](O)[C@H](C)O1 [DOX, Doxorubicin hydrochloride, reference compound]: 0.3
4) COc1cc(NC2=NC(=O)C(=Cc3cccs3)S2)cc(OC)c1OC: 4.41
5) COc1cc(NC2=NC(=O)C(=Cc3c[nH]c4ccccc34)S2)cc(OC)c1OC: 7.77

###

// values below are reported IC50
# Tested on: AGS
# protocol-notes: MTT cell viability assay
# Assay type: cell-based
# experimental-setup: Homo sapiens, AGS 48 h
Counter-ions that a name gives are not always drawn.
observation-type: IC50 (µM)

1) COc1cccc2c1C(=O)c1c(O)c3c(c(O)c1C2=O)C[C@@](O)(C(=O)CO)C[C@@H]3O[C@H]1C[C@H](N)[C@H](O)[C@H](C)O1 [DOX, Doxorubicin hydrochloride, reference compound]: 0.39
2) COc1cc(NC2=NC(=O)C(=Cc3cccs3)S2)cc(OC)c1OC: 14.5
3) COc1cc(NC2=NC(=O)C(=Cc3ccc4cc[nH]c4c3)S2)cc(OC)c1OC: 3.45
4) COc1ccc(C=C2SC(Nc3cc(OC)c(OC)c(OC)c3)=NC2=O)cc1: 2.24
5) COc1cc(NC2=NC(=O)C(=Cc3c[nH]c4ccccc34)S2)cc(OC)c1OC: 4.59

###

Measured viability at 5 µM accompanies every entry in the list below.
# Test system: MCF-7 cells
# protocol-notes: Annexin V-FITC/propidium iodide flow cytometry
# Type: cell-based, human
# experimental-setup: Homo sapiens, MCF7, 5 µM, 24 h, read-out: Viable cells, cell population
observation-type: viability at 5 µM (%)

1) COc1ccc(C=C2SC(Nc3cc(OC)c(OC)c(OC)c3)=NC2=O)cc1: 49.6
2) COc1cc(NC2=NC(=O)C(=Cc3cccs3)S2)cc(OC)c1OC: 90
3) COc1cc(NC2=NC(=O)C(=Cc3c[nH]c4ccccc34)S2)cc(OC)c1OC: 47.7
4) COc1cc(NC2=NC(=O)C(=Cc3ccco3)S2)cc(OC)c1OC: 90.4
5) COc1cc(NC2=NC(=O)C(=Cc3ccc4cc[nH]c4c3)S2)cc(OC)c1OC: 39.8

###

# Test system: C8-D1A
# protocol-notes: MTT cell viability assay
# Type: cell-based
# experimental-setup: Mus musculus, C8-D1A 24 h, normal cells
Here, each record is paired with measured IC50 data.
observation-type: IC50 (µM)

1) COc1cc(NC2=NC(=O)C(=Cc3c[nH]c4ccccc34)S2)cc(OC)c1OC: 12.9
2) COc1cc(NC2=NC(=O)C(=Cc3ccc4cc[nH]c4c3)S2)cc(OC)c1OC: 14.3

###

Entries annotated with measured pIC50
# System: MCF-10A
# protocol-notes: MTT cell viability assay
# Type: cell-based
# experimental-setup: Homo sapiens, MCF-10A 72 h, normal cells
pIC50: −log10 of the molar value. Where a name gives a salt, the structure may show the parent alone.
observation-type: pIC50

1. COc1ccc(C=C2SC(Nc3cc(OC)c(OC)c(OC)c3)=NC2=O)cc1: 5.69
2. COc1cccc2c1C(=O)c1c(O)c3c(c(O)c1C2=O)C[C@@](O)(C(=O)CO)C[C@@H]3O[C@H]1C[C@H](N)[C@H](O)[C@H](C)O1 [DOX, Doxorubicin hydrochloride, reference compound]: 6.96
3. COc1cc(NC2=NC(=O)C(=Cc3c[nH]c4ccccc34)S2)cc(OC)c1OC: 5.18
4. COc1cc(NC2=NC(=O)C(=Cc3ccc4cc[nH]c4c3)S2)cc(OC)c1OC: 5.14
